Recorded Kb by entry
Target: β1 -adrenergic receptors (Rattus norvegicus, UniProt P18090)
Construct: from tissue; host or cells: isolated rat auricles (atria)
Sequence (P18090 whole entry): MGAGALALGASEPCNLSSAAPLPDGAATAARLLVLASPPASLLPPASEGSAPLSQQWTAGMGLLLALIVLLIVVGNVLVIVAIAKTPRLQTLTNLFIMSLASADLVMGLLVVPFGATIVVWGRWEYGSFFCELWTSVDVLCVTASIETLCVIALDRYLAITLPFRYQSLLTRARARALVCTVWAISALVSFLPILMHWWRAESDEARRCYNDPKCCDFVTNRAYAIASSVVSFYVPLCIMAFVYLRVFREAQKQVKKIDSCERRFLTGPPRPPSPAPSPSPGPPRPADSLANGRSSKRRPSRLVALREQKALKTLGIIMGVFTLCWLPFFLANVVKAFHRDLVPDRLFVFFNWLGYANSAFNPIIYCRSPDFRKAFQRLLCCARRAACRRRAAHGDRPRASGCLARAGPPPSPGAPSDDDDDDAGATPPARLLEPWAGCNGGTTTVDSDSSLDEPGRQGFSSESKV
Experiment: Studies on isolated organs: antagonism of isoprenaline-induced tachycardia and increase in contractile force in isolated rat auricles (pA2)
Design: species or system rats
Settings: isoprenaline increase in contractile force, 31° C., read-out: pA2, effect on inotropism (converted)
Output spec: scalar in nM, unitless text.

- molecule: "CC(CCc1ccc(F)cc1)NCC(O)COc1ccc(CCOCC2CCC2)cc1 (centres unmarked)"
  Kb, nM: 692
- molecule: "CC(C)NCC(O)COc1ccc(OCCOCC2CCCC2)cc1 (centres unmarked)"
  Kb, nM: 10.7
- molecule: "CC(C)NCC(O)COc1ccc(OCC2CC2)cc1 (centres unmarked)"
  Kb, nM: 5.37
- molecule: "CC(C)NCC(O)COc1ccc(CCOCC2CCCCC2)cc1 (centres unmarked)"
  Kb, nM: 398
- molecule: "CC(C)NCC(O)COc1ccc(OCCSCC2CC2)cc1 (centres unmarked)"
  Kb, nM: 14.8

Quick note, Kb for CC(CC#N)NCC(O)COc1ccc(CCOCC2CCC2)cc1 (centres unmarked) landed at 617

Kb recorded for this molecule, COc1ccc(CCNCC(O)COc2ccc(CCOCC3CCC3)cc2)cc1OC (centres unmarked) , is 74.1

So for CC(C)NCC(O)COc1ccc(CCSCC2CCC2)cc1 (centres unmarked) , the logged Kb turned out to be 132

----------
Let's look at some compounds and their measured Kb.
Target: β1 -adrenergic receptors (Rattus norvegicus)
Construct: from tissue; host or cells: isolated rat auricles (atria)
Test: Studies on isolated organs: antagonism of isoprenaline-induced tachycardia and increase in contractile force in isolated rat auricles (pA2)
Parameters: species or system rats
Conditions: isoprenaline tachycardia, 31° C., read-out: pA2, effect on chronotropism (converted)
Give the quantity in nM, number only.

Answered examples (4):
- compound: "CC(C)(C)NCC(O)COc1ccc(OCCOCC2CC2)cc1 (stereo not drawn) [SL D.178]"
  units: "nM"
  value: 20
- compound: "CC(C)NCC(O)COc1ccc(OCCS(=O)(=O)CC2CC2)cc1 (stereo not drawn) [SL E.155]"
  units: "nM"
  value: 162
- compound: "CC(=O)NCCNCC(O)COc1ccc(CCOCC2CCC2)cc1 (stereo not drawn) [SL E.025]"
  units: "nM"
  value: 37.2
- compound: "CC(C)NCC(O)COc1ccc(OCCOCC2CCC2)cc1 (stereo not drawn) [SL E.096]"
  units: "nM"
  value: 5.62

Record CC(C)NCC(O)COc1ccc(OCCOCC2CCCC2)cc1 (stereo not drawn) [SL E.203] , field Kb: 5.5

Entry under test: CC(C)NCC(O)COc1ccc(OCC2CC2)cc1 (stereo not drawn) [SL D.230] . Its Kb was 5.01

----------
Molecular target: β1 -adrenergic receptors (Rattus norvegicus, UniProt P18090)
Construct: from tissue; host or cells: isolated rat auricles (atria)
Assay: Studies on isolated organs: antagonism of isoprenaline-induced tachycardia and increase in contractile force in isolated rat auricles (pA2)
Design: species or system rats
Settings: isoprenaline tachycardia, metoprolol = 1.0
parameter: Effect on chronotropism, ratio of activity to that of metoprolol

Data point: CC(C)NCC(O)COc1ccc(CCOCC2CCCC2)cc1 (centres unmarked) ; Effect on chronotropism, ratio of activity to that of metoprolol = 0.2

Reported Effect on chronotropism, ratio of activity to that of metoprolol for CC(C)NCC(O)COc1ccc(OCCCC2CC2)cc1 (centres unmarked) was 0.2

----------
Target: β1 -adrenergic receptors (Rattus norvegicus)
Construct: from tissue; host or cells: isolated rat auricles (atria)
Test: Studies on isolated organs: antagonism of isoprenaline-induced tachycardia and increase in contractile force in isolated rat auricles (pA2)
Set-up: species or system rats
Conditions: isoprenaline increase in contractile force, 31° C., read-out: pA2, effect on inotropism (converted)
Quick rule for you: Kb under 90 nM gets condition met, anything else gets condition not met.

As a guide, the following entries are already answered.
- compound: "CC(C)NCC(O)COc1ccc(OCCCC2CC2)cc1 (stereo not shown)"
  class-assignment: "condition met"
- compound: "CC(C)NCC(O)COc1ccc(CCOCC2CCCC2)cc1 (stereo not shown)"
  class-assignment: "condition not met"
- compound: "CC(C)NCC(O)COc1ccc(OCCS(=O)(=O)CC2CC2)cc1 (stereo not shown)"
  class-assignment: "condition not met"
- compound: "CC(C)NCC(O)COc1ccc(OCCOCC2CCC2)cc1 (stereo not shown)"
  class-assignment: "condition met"
- compound: "CC(C)(C)NCC(O)COc1ccc(OCCOCC2CC2)cc1 (stereo not shown)"
  class-assignment: "condition met"

Bench note: check whether CC(C)NCC(O)COc1ccc(COCC2CCC2)cc1 (stereo not shown) shows Kb below 90 nM
condition met

Confirm or reject: Kb of CC(C)NCC(O)COc1ccc(OCCOCC2CC2)cc1 (stereo not shown) lies strictly below 90 nM
condition met

Does this compound meet the criterion Kb < 90 nM? CC(CCc1ccccc1)NCC(O)COc1ccc(CCOCC2CCC2)cc1 (stereo not shown)
condition not met

Report whether reported Kb is lower than 90 nM (strictly) for CC(C)(C)NCC(O)COc1ccc(OCC2CC2)cc1 (stereo not shown)
condition met

----------
Assay: in vivo
Conditions: mouse, oral administration, mortality over 5 days, confidence limits: 95%, read-out: LD50 oral administration
Criterion: LD50 at 120 h strictly less than 800 mg/kg. Met: rule met. Not met: rule not met.

Worked cases, answers included:
- compound: "CC(C)(C)NCC(O)COc1ccc(OCCOCC2CC2)cc1 (centres unmarked) [SL D.178]"
  class-assignment: "rule met"
- compound: "CC(C)(C)NCC(O)COc1ccc(OCC2CC2)cc1 (centres unmarked) [SL D.231]"
  class-assignment: "rule not met"
- compound: "CC(C)NCC(O)COc1ccc(CCOCC2CCC2)cc1 (centres unmarked) [SL D.254]"
  class-assignment: "rule met"
- compound: "CC(C)NCC(O)COc1ccc(COCC2CC2)cc1 (centres unmarked) [SL D.224]"
  class-assignment: "rule not met"
- compound: "CC(C)NCC(O)COc1ccc(CCOCC2CC2)cc1 (centres unmarked) [SL D.212]"
  class-assignment: "rule not met"

Criterion: LD50 at 120 h strictly below 800 mg/kg. Is it met by COCCc1ccc(OCC(O)CNC(C)C)cc1 (centres unmarked) [METOPROLOL, reference compound] ?
rule not met

Report whether reported LD50 at 120 h is lower than 800 mg/kg (strictly) for CC(C)NCC(O)COc1ccc(OCCOCC2CC2)cc1 (centres unmarked) [SL D.177]
rule met

Quick check: LD50 at 120 h of CC(C)NCC(O)COc1ccc(OCC2CC2)cc1 (centres unmarked) [SL D.230] under 800 mg/kg?
rule met

----------
Below, each of the compounds is paired with its reported pA2, effect on chronotropism value.
Biological target: β1 -adrenergic receptors (Rattus norvegicus, UniProt P18090)
Construct: from tissue; host or cells: isolated rat auricles (atria)
Test: Studies on isolated organs: antagonism of isoprenaline-induced tachycardia and increase in contractile force in isolated rat auricles (pA2)
Parameters: species or system rats
Conditions: isoprenaline tachycardia, 31° C.

Here's what some known entries look like.
- compound: "CC(C)NCC(O)COc1ccc(COCC2CCC2)cc1 (stereo not shown) [SL E.080]"
  pA2, effect on chronotropism: 7.44
- compound: "CC(C)NCC(O)COc1ccc(CCCOCC2CCC2)cc1 (stereo not shown) [SL E.061]"
  pA2, effect on chronotropism: 7.02
- compound: "CC(C)NCC(O)COc1ccc(CCSCC2CCC2)cc1 (stereo not shown) [SL D.056]"
  pA2, effect on chronotropism: 7.11

// next entry
Per the records, this compound ( CC(CCc1ccccc1)NCC(O)COc1ccc(CCOCC2CCC2)cc1 (stereo not shown) [SL E.049] ) has pA2, effect on chronotropism equal to 5.11

----------
Assay: in vivo
Conditions: mouse, intravenous administration, mortality over 5 days, confidence limits: 95%, read-out: LD50 intravenous administration
Listing of recorded LD50 at 120 h by entry.
The answer is to be given in mg/kg; state only the numeric part.

Examples with their reported LD50 at 120 h follow.
- compound: "CC(C)NCC(O)COc1ccc(OCC2CC2)cc1 (centres unmarked) [SL D.230]"
  LD50 at 120 h [mg/kg]: 48
- compound: "CC(C)(C)NCC(O)COc1ccc(OCC2CC2)cc1 (centres unmarked) [SL D.231]"
  LD50 at 120 h [mg/kg]: 36
- compound: "CC(C)NCC(O)COc1ccc(CCOCC2CCCC2)cc1 (centres unmarked) [SL D.291]"
  LD50 at 120 h [mg/kg]: 56
- compound: "CC(C)NCC(O)COc1ccc(OCCOCC2CC2)cc1 (centres unmarked) [SL D.177]"
  LD50 at 120 h [mg/kg]: 76
- compound: "CC(C)NCC(O)COc1ccc(CCOCC2CC2)cc1 (centres unmarked) [SL D.212]"
  LD50 at 120 h [mg/kg]: 37
- compound: "CC(C)NCC(O)COc1ccc(CCOCC2CCC2)cc1 (centres unmarked) [SL D.254]"
  LD50 at 120 h [mg/kg]: 28

Record CC(C)NCC(O)COc1ccc(COCC2CC2)cc1 (centres unmarked) [SL D.224] . Reported LD50 at 120 h: 88

// LD50 at 120 h value for CC(C)NCC(O)COc1ccc(CCOCC2CCCCC2)cc1 (centres unmarked) [SL D.268] : 35

So, CC(C)(C)NCC(O)COc1ccc(OCCOCC2CC2)cc1 (centres unmarked) [SL D.178] ? Its LD50 at 120 h was 53

Recorded LD50 at 120 h (compound CC(C)NCC(O)COc1ccc(OCCCC2CC2)cc1 (centres unmarked) [SL D.311] ): 71

compound COCCc1ccc(OCC(O)CNC(C)C)cc1 (centres unmarked) [METOPROLOL, reference compound] , LD50 at 120 h observed: 62
